Source: patent US20060194259A1

target: receptor EGFP-NK2R (UniProt P16610)
procedure text: Dissociation kinetics of NKA-Bo bound to EGFP-NK2R by fluorescence energy transfer
Type: binding
Set-up: % al (max): maximum value observed for the increase in amplitude of the rapid dissociation rate; ns = n; other: 20 nM of NK; % al (at 10 μM); other: compou; fused on or other part: EGFP fused to the receptor as FRET donor
experimental setup: compound 10 μM; T = 22 ± 1 is amplitude of rapid dissociation in the absence of effector
Label YES when % al (at 10 μM) is at or above 30%; anything below gets NO.

Reference set (3 entries):
> print(dat)
                                   compound  qualitative.label
1  N#CCN(Cc1ccccc1)Cc1c[nH]c2ccccc12 [CV1-81]                 NO
2    N#CCN(Cc1ccccc1)Cc1ccc(Br)cc1 [CV1-85]                 NO
3    N#CCN(Cc1ccccc1)Cc1cccc(Br)c1 [CV1-84]                 NO

Exercise: Would you say N#CCN(Cc1ccc2ccccc2c1)Cc1ccccc1Br [CV1-80] shows % al (at 10 μM) at minimum 30%?
Key: NO

Exercise: In plain terms: is recorded % al (at 10 μM) at least 30% for N#CCN(Cc1ccc(Br)cc1)Cc1ccc2ccccc2c1 [CV1-93] ?
Key: NO

Exercise: Determine whether this compound has % al (at 10 μM) no lower than 30%: N#CCN(Cc1ccc(CCc2ccccc2)cc1)Cc1ccc2ccccc2c1 [CV1-135]
Key: NO

Exercise: Please indicate if the recorded % al (at 10 μM) for N#CCN(Cc1ccccc1)Cc1ccc(Cl)cc1 [CV1-122] meets or exceeds 30%.
Key: YES

Exercise: Hello, I need to know if N#CCN(Cc1ccccc1)Cc1cccc(Cl)c1 [CV1-123] has measured % al (at 10 μM) not below 30%. Thanks!
Key: NO

Exercise: Dear colleague, could you confirm whether N#CCN(Cc1ccccc1)Cc1cccc(Cl)c1Cl [CV1-97] has % al (at 10 μM) at or above 30%?
Key: YES

---

target: UniProt:P16610
Sequence (P16610 1-390): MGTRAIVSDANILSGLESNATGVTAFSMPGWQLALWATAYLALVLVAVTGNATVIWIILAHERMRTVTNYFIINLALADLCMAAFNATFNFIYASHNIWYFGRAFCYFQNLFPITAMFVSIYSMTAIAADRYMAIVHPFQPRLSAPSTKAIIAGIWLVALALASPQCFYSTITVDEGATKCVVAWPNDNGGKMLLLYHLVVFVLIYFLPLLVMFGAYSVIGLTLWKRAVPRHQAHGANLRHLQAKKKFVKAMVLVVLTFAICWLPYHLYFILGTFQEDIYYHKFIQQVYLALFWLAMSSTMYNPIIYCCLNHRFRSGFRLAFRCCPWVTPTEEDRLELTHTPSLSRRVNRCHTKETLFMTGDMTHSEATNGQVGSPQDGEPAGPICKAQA
procedure text: Reversion of the binding of NKA-Bo to EGFP-NK2R by fluorescence energy transfer
Design: % al (max): maximum value observed for the increase in amplitude of the rapid dissociation rate; ns = n; other: 20 nM of NK; % al (at 10 μM); other: compou; fused on or other part: EGFP fused to the receptor as FRET donor
experimental setup: read-out: IC50 (μM): concentration of compound for which a 50% reduction is observed in the binding of NKA-Bo; 20 nM of NKA-Bo, EGFP-NK2R receptor
measured endpoint: IC50

Please review the entries below; each comes with its answer.
> print(dat)
                                   molecule          target  experimental.result
1        Clc1ccc(CNCc2ccc3ccccc3c2)cc1 [H6]  UniProt:P16610             > 100 µM
2  N#CCN(Cc1ccc(Cl)cc1)Cc1ccc2ccccc2c1 [NP234 or 801]  UniProt:P16610               110 µM
3  N#CCN(Cc1ccc(N)cc1)Cc1cccc2ccccc12 [compound 804]  UniProt:P16610             > 100 µM
4  C#CCN(Cc1ccccc1)Cc1ccc2ccccc2c1 [compound 808]  UniProt:P16610             > 200 µM
5  O=C(CC(Nc1ncc(-c2ccccc2)s1)c1ccccc1)c1ccccc1 (centres unmarked) [F7]  UniProt:P16610                90 µM
6  COC(=O)CN(Cc1ccccc1)Cc1ccc2ccccc2c1 [compound 806]  UniProt:P16610             > 200 µM
7  NCCCC(NC(=O)c1ccccc1)C(=O)NC(Cc1ccccc1)C(N)=O (centres unmarked) [G6]  UniProt:P16610                46 µM

Exercise: Item NC(=O)CN(Cc1ccc2ccccc2c1)c1ccccc1 [H10] has what recorded IC50?
Key: ≥ 100 µM

---

target: receptor EGFP-NK2R (UniProt P16610)
Sequence (P16610 1-390): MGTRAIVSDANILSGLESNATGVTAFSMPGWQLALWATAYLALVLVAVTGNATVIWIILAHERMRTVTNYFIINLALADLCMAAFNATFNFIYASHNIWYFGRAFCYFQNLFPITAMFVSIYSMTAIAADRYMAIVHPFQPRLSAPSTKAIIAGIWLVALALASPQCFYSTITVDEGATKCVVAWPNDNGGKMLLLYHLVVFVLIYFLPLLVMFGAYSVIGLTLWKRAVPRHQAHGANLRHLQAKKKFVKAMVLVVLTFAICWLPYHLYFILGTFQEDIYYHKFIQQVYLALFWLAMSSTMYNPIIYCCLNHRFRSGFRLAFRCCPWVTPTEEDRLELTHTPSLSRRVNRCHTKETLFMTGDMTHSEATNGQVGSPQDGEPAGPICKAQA
procedure text: cAMP production caused by NKA in HEK 293 cells expressing EGFP-NK2R
experimental setup: read-out: inhibition constant KI of the maximum response of cAMP induced by the NKA; FIG. 9C
pKi: −log10 of the molar value.
measured endpoint: pKi

Exercise: Please report the recorded pKi for "N#CCN(Cc1ccccc1)Cc1ccc2ccccc2c1" .
Key: ~5.22

---

target: receptor EGFP-NK2R (UniProt P16610)
procedure text: Dissociation of NKA4-10 TR7 from EGFP-NK2R by fluorescence energy transfer
Assay type: binding
Parameters: % al (max): maximum value observed for the increase in amplitude of the rapid dissociation rate; ns = n; other: 20 nM of NK; % al (at 10 μM); other: compou; fused on or other part: EGFP fused to the receptor as FRET donor
experimental setup: read-out: concentration which causes a 50% increase in the amplitude of the rapid dissociation of NKA4-10 TR7 (apparent affinity); 10° C.
measured endpoint: EC50

Exercise: Given the entry "N#CCN(Cc1ccccc1)Cc1ccc2ccccc2c1" , what EC50 was observed with receptor EGFP-NK2R (UniProt P16610)?
Key: ~20 µM

---

target: UniProtKB P16610
procedure text: Reversion of the binding of NKA-Bo to EGFP-NK2R by fluorescence energy transfer
Set-up: % al (max): maximum value observed for the increase in amplitude of the rapid dissociation rate; ns = n; other: 20 nM of NK; % al (at 10 μM); other: compou; fused on or other part: EGFP fused to the receptor as FRET donor
experimental setup: compound 10 μM
measured endpoint: % bond reversion (at 10 μM) (%)
Output spec: scalar in %, unitless text.

Below are worked cases with known answers.
> print(dat)
                     compound.smiles  experimental.result
1      N#CCN(Cc1ccccc1)Cc1ccc(Br)cc1                    4
2      N#CCN(Cc1ccccc1)Cc1cccc(Br)c1                    4
3  N#CCN(Cc1ccccc1)Cc1c[nH]c2ccccc12                   15

Exercise: % bond reversion (at 10 μM) for "N#CCN(Cc1ccccc1)Cc1cccc(Cl)c1Cl" ?
Key: 15

Exercise: Query: % bond reversion (at 10 μM); subject: "N#CCN(Cc1ccc(Br)cc1)Cc1ccc2ccccc2c1"
Key: 3

---

target: receptor EGFP-NK2R (UniProt P16610)
Sequence (P16610 1-390): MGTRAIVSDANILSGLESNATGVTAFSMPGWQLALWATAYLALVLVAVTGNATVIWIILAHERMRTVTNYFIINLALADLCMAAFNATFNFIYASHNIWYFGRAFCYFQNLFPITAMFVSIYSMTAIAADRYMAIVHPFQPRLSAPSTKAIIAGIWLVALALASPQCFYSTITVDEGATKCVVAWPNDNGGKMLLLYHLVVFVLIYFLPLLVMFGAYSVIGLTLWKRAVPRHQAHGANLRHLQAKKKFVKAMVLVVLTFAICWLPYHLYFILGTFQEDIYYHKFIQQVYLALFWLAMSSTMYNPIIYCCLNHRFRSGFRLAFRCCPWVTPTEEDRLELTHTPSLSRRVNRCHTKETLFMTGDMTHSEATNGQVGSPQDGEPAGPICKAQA
procedure text: Reversion of the binding of NKA-Bo to EGFP-NK2R by fluorescence energy transfer
Design: % al (max): maximum value observed for the increase in amplitude of the rapid dissociation rate; ns = n; other: 20 nM of NK; % al (at 10 μM); other: compou; fused on or other part: EGFP fused to the receptor as FRET donor
experimental setup: read-out: IC50 (μM): concentration of compound for which a 50% reduction is observed in the binding of NKA-Bo; 20 nM of NKA-Bo, EGFP-NK2R receptor
Overview of recorded IC50 for various compounds

> print(dat)
                                   compound                               target  measured.endpoint  experimental.result
1  CCOC(=O)c1ccc(CN(CC#N)Cc2ccc3ccccc3c2)cc1  receptor EGFP-NK2R (UniProt P16610)               IC50             > 100 µM
2        N#CCN(Cc1ccccc1)c1ncc(-c2ccccc2)s1  receptor EGFP-NK2R (UniProt P16610)               IC50             > 100 µM
3   N#CCN(Cc1ccc(Cl)c(Cl)c1)Cc1ccc2ccccc2c1  receptor EGFP-NK2R (UniProt P16610)               IC50             > 500 µM
4           N#CCN(Cc1ccccc1)Cc1ccc2ccccc2c1  receptor EGFP-NK2R (UniProt P16610)               IC50             > 500 µM

Exercise: May I ask what IC50 has been recorded for Cc1ccc(NC(CC(=O)c2ccccc2)c2ccccc2)nc1 (stereo not drawn) ?
Key: > 50 µM

Exercise: Entry under review: "Nc1ccc(CNCc2ccc3ccccc3c2)cc1" . Reported IC50?
Key: > 50 µM
